target: IL17-RE-IL-17C (Homo sapiens, UniProt Q8NFR9+Q9P0M4); experiment: Inhibition of interleukin-17RE/biotinylated IL-17C protein-protein interaction (unknown origin) incubated for 1 hrs by competitive ELISA
Sequence (Q9P0M4 whole entry): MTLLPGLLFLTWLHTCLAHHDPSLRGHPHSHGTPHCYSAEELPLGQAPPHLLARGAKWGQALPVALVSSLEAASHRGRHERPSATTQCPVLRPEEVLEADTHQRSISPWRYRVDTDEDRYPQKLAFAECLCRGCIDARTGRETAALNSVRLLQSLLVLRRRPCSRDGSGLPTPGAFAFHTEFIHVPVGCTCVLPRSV
Sequence (Q8NFR9 whole entry): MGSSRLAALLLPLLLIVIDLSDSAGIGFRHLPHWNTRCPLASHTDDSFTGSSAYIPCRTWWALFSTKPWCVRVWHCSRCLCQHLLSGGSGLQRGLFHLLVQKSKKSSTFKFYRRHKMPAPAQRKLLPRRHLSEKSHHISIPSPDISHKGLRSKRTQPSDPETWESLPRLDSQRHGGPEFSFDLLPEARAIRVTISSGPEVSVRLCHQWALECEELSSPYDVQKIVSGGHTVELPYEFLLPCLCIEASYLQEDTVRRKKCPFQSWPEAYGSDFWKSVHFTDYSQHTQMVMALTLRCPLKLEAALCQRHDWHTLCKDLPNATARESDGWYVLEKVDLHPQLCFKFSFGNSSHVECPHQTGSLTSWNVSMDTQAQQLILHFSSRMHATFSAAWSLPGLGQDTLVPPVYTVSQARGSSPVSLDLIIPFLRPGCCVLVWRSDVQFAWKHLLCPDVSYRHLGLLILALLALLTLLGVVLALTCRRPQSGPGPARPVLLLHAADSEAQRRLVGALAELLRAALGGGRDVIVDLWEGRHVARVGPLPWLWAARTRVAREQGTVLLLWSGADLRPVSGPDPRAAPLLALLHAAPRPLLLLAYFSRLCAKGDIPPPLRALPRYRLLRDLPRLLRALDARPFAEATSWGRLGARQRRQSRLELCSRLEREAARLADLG
Bridge positions count the residues as written; N and C are the ends. Peptide text beside a SMILES is read from it.
VALUE_TYPE: pIC50
Give bare numbers, as −log10 of the molar value.

MOLECULE	pIC50
CC[C@@H](C)[C@@H]1NC(=O)[C@H](CCCNC(=N)N)NC(=O)[C@H](Cc2ccc(O)cc2)NC(=O)[C@H](Cc2ccc(O)cc2)NC(=O)[C@H](CCC(N)=O)NC(=O)[C@H](Cc2c[nH]cn2)NC(=O)[C@H](Cc2ccc(O)cc2)NC(=O)CSC[C@@H](C(=O)NCC(N)=O)NC(=O)CNC(=O)[C@H](CC(C)C)NC(=O)[C@H](CC(N)=O)NC(=O)CNC(=O)[C@H](Cc2ccc(O)cc2)NC(=O)[C@H](CC(C)C)NC1=O	8.25

Below: the item to evaluate.
Tell me the measured pIC50 of CC[C@H](C)[C@@H]1NC(=O)[C@H](CCCNC(=N)N)NC(=O)[C@H](Cc2ccc(O)cc2)NC(=O)[C@H](Cc2ccc(O)cc2)NC(=O)[C@H](Cc2c[nH]cn2)NC(=O)[C@H](Cc2c[nH]cn2)NC(=O)[C@H](Cc2ccc(O)cc2)NC(=O)CSC[C@@H](C(=O)NCC(N)=O)NC(=O)CNC(=O)[C@H](CC(C)C)NC(=O)[C@H](CC(N)=O)NC(=O)CNC(=O)[C@H](Cc2ccc(O)cc2)NC(=O)[C@H](CC(C)C)NC1=O ({CH2CO}-YHHYYRILYGNLGCG-NH2; thioether N-14) , please.
7.33
